- target or system: MS2 coat protein, dlFG mutant (Escherichia phage MS2, UniProt P03612, del68-81insG)
- protocol notes: 4 mM Mg2+; no ligand; RNA-MaP array; 100 mM Tris-HCl pH 7.5, 80 mM KCl, 4 mM MgCl2, 0.1 mg/mL BSA, 1 mM DTT, 0.01 mg/mL yeast tRNA, 0.01% Tween-20; protein 1.5 nM to 3 uM; 37 C (Table S3)
- assay context: chain copies: 2; label: tethered by stalled RNA polymerase
Kindly state Kd for each of the entries shown.

Prompt: Look up and state reported Kd for Eterna 7692390 (Exclusion - Arginine A) (ssRNA) RNA: AGUAGGAAACUACAAUCCUCUCUUACUGAAGGAGCGCGUGAAAACGCAGGUAGGUCGCAGGAUUGGAGAGUGAUGUUCUCCUUAA
Completion: > 3000 nM

Prompt: Look up and state reported Kd for Eterna 7612197 (Same State - Arginine B) (ssRNA) RNA: ACGUAAAGCAGAAGGAGCGUCUUCAAUUUACAUGAGGAUCACCCAUGUUUUGUGAUCAUAUGACAGGUAGGUCGCUGAAGUACGA
Completion: 127 nM

Prompt: Look up and state reported Kd for Eterna 6373941 (Exclusion NG 3) (ssRNA) RNA: GUCACGGUUAAUUCCGUGACGCGCAAACCUUGAGGAUCACCCAAGGAUAUCGACGUCAAUGACGUCGAGAAGGUGGUUGAGCGC
Completion: 53.8 nM

Prompt: Look up and state reported Kd for Eterna 6124182 (Same State NG 2) (ssRNA) RNA: GUAGCAUGAUUAGGAUAUUCAGCGAAUAGAUUGACAUGAGGAUCACCCAUGUGGCGAAAGCCGAGGGAGAAGGGAUGAUGCUAC
Completion: 165 nM

Prompt: Look up and state reported Kd for Eterna 7726098 (Exclusion - FMN A) (ssRNA) RNA: AAGUGAUGUUGUAGUGAUGUUGUGAUGUUGCAGGAUAUAUAGUGAUGUAGAAGGGUAAGUACUUAUUUUUUUUUUGAGUUAUGUU
Completion: > 3000 nM

Prompt: Look up and state reported Kd for Eterna 6453699 (Inverted Same State NG 2) (ssRNA) RNA: AGUUUGUUUGAGAAGGUGAAGUGGAAACAUGAGGAUCACCCAUGUAUUAGGAAGCCUGGUUUUGUCAAGGAUAUCGGGUAAACA
Completion: 15.2 nM

Prompt: Look up and state reported Kd for Eterna 12668 (Exclusion 3) (ssRNA) RNA: UAAAAGCUAGGAUAUACAUGAGGAUCACCCAUGUCACGGGUCCACUCAUCCUAUACGUGUAGAAGGAGCGACCC
Completion: 17.4 nM

Prompt: Look up and state reported Kd for Eterna 1165 (Exclusion - Theophylline B) (ssRNA) RNA: CCAAGCGUCAGCGAUACCAGAAUUCUAGUGAUGUUAGGUUCUGUCAUUGUACUAGCAGUGUUCCCUUGGCAGCGCGUGAUAGGCA
Completion: > 3000 nM

Prompt: Look up and state reported Kd for Eterna 7652698 (Same State - Arginine A) (ssRNA) RNA: CGGUCGGUCGGCCGGUGAUUAUGGGAUGAAGGAGCGUGGGAAGCUACAGGUAGGUCGCAUCCGAAACAUCACGAUCACGGAUGUU
Completion: 74.9 nM

Prompt: Look up and state reported Kd for Eterna 7653809 (Same State - Theophylline B) (ssRNA) RNA: UGUAUGUGAUUUGAUACCAGACCAGCUGGUGGUACUUGAGGAACACCCAAGUAGGUUUGGGUCCCUUGGCAGCAAAUCGCAUACU
Completion: 177 nM

Prompt: Look up and state reported Kd for Eterna 1206 (Exclusion - Tryptophan A) (ssRNA) RNA: CUAUAGACCCUUCGGAUAGUGAUGUUGUCACGAGGACCGGUACGGCCGCCACUCGCUGCCACCAUACCGCUUCACGGAACGAGCA
Completion: > 3000 nM

Prompt: Look up and state reported Kd for Eterna 9406 (Exclusion 4) (ssRNA) RNA: UUCAUGUGAGGAUAUGUGAUCUGCUUUCUGUUUAGAUGAUCACAGAAGGCACAUGAGGAUCACCCAUGUAGAUC
Completion: 141 nM

Prompt: Look up and state reported Kd for Eterna 6461477 (Inverted Same State NG 1) (ssRNA) RNA: GCUGCAUGUGAGAAGGCGAUCAUGAAACAUGAUCGAGGAUAUCAUGUAAACAUGAGGAUCACCCAUGUAUGGGUAUUAAGCAGC
Completion: 272 nM

Prompt: Look up and state reported Kd for Eterna 15533 (Exclusion 1) (ssRNA) RNA: UCUCGACAUGAGGAUCACCCAUGUCAGGAUAUUGUGUUUGAGGUUUUUUACCUUUUGACAAGAAGGGAUGUGUG
Completion: 29.8 nM

Prompt: Look up and state reported Kd for Eterna 7681146 (Same State - Arginine A) (ssRNA) RNA: ACUGGGUUGACGAAAGUCAACAAAAGAGAAGGAGCGCACGAAAGUGCAGGUAGGUCGCUCAUCCAGUGAUGUUGGAUCAUCCAGA
Completion: > 3000 nM
